Let's look at some compounds and their measured melting point.
Reported Endpoint: melting point

Compound | Test Value
CC1CN(c2cc(Nc3ccn[nH]3)nc(Sc3ccc(NC(=O)C4CC4)cc3)n2)CCN1 (centres unmarked) | 160 to 161 °C
CCC(=O)Nc1ccc(Sc2nc(Nc3cc(C)n[nH]3)cc(N3CCC(N)C3)n2)cc1 (centres unmarked) | 159 to 160 °C
CS(=O)(=O)CCN1CCN(c2cc(Nc3ccn[nH]3)nc(Sc3ccc(NC(=O)C4CC4)cc3)n2)CC1 | 154 to 155 °C
CS(=O)(=O)N1CCN(c2cc(Nc3ccn[nH]3)nc(Sc3ccc(NC(=O)C4CC4)cc3)n2)CC1 | 168 to 169 °C
CC(C)(C)N1CCN(c2cc(Nc3ccn[nH]3)nc(Sc3ccc(NC(=O)C4CC4)cc3)n2)CC1 | 167 to 169 °C
CCC(=O)Nc1ccc(Sc2nc(Nc3cc(C)n[nH]3)cc(N3CC(C)NC(C)C3)n2)cc1 (centres unmarked) | 151 to 152 °C
Cc1cc(Nc2cc(NCCN3CCCC3)nc(Sc3ccc(NC(=O)C4CC4)cc3)n2)[nH]n1 | 220 to 222 °C
N#CCCN1CCN(c2cc(Nc3ccn[nH]3)nc(Sc3ccc(NC(=O)C4CC4)cc3)n2)CC1 | 131 to 132 °C
Cc1cc(Nc2cc(N3CCNCC3)nc(Sc3ccc(NC(=O)C(C)(C)C)cc3)n2)[nH]n1 | 178 to 181 °C
Cc1cc(Nc2cc(N3CCOCC3)nc(Sc3ccc(NC(=O)C4CC4)cc3)n2)[nH]n1 | 238 to 239 °C
O=C(Nc1ccc(Sc2nc(Nc3ccn[nH]3)cc(N3CCN(CC(=O)N4CCOCC4)CC3)n2)cc1)C1CC1 | 158 to 159 °C
